# System: Vero E6 infected with SARS-CoV-2
# assay_procedure: morphology score (similarity to uninfected cells); higher = more like uninfected cells
# particulars: 24 h
Can you tell me morphology score for the items I'm about to list?
# answer = number (no unit)

What value of morphology score has been reported for the following compound? COc1cc2c(NC3CCN(C)CC3)nc(N3CCCN(C)CC3)nc2cc1OCCOCCN(C)C (10 µM) 0.108

Sample CN1[C@@H]2CC[C@H]1C[C@@H](OC(=O)c1c[nH]c3ccccc13)C2 [tropisetron] (10 µM) — what was its morphology score? -0.0266

Recorded morphology score of CC[C@@H]1C(=O)N(C)c2cnc(Nc3ccc(C(=O)N[C@H]4CC[C@H](N5CCN(CC6CC6)CC5)CC4)cc3OC)nc2N1C(C)C [volasertib] (10 µM) , please. -0.314

Need morphology score of CC(C)C(=O)Nc1ccc([N+](=O)[O-])c(C(F)(F)F)c1 [flutamide] (10 µM) , thanks. -0.24

Dear colleague, I am looking for the recorded morphology score of the following compound: CCCc1nc(C)c2c(=O)nc(-c3cc(S(=O)(=O)N4CCN(CC)CC4)ccc3OCC)[nH]n12 [vardenafil] (10 µM) 0.227

Bench note: what morphology score did CN1Cc2c(N)cccc2C(c2ccccc2)C1 (configuration not stated) [nomifensine] (10 µM) show? -0.106

# input compound: CCC(=O)O[C@H]1[C@H](O[C@@H]2[C@@H](C)[C@H](O[C@H]3C[C@@](C)(OC)[C@@H](O)[C@H](C)O3)[C@@H](C)C(=O)O[C@H](CC)[C@@](C)(O)[C@H](O)[C@@H](C)C(=O)[C@H](C)C[C@@]2(C)O)O[C@H](C)C[C@@H]1N(C)C [erythromycin-estolate] (10 µM) ; wanted: its morphology score 0.0736

====

# System: Vero E6 infected with SARS-CoV-2
# assay_procedure: inhibition of SARS-CoV-2 cytopathic effect; higher = more antiviral protection, active = above 15
# particulars: 833.33 nM; 48 h
observable: inhibition of SARS-CoV-2 cytopathic effect

Could you tell me which inhibition of SARS-CoV-2 cytopathic effect is on file for CCOC(=O)[C@]12CC1/C(=N\O)c1ccccc1O2 (stereo partly drawn) ? -3.34% (inactive)

Consider the compound shown here: CC(C)(O)c1coc(S(=O)(=O)NC(=O)Nc2c3c(cc4c2CCC4)CCC3)c1 What is its recorded inhibition of SARS-CoV-2 cytopathic effect? 0.34% (inactive)

Need inhibition of SARS-CoV-2 cytopathic effect of CCC[N+]12[C@H](O)[C@@H](CC)[C@@H]3C[C@H]1[C@@H]1N(C)c4ccccc4[C@]14C[C@H]2[C@@H]3[C@H]4O [neo-gilurytmal] , thanks. 1.4% (inactive)

Name the recorded inhibition of SARS-CoV-2 cytopathic effect for O=C(O)C[C@H]1CC[C@H](c2ccc(NC(=O)c3nnc(Nc4ccc(F)c(F)c4)o3)cc2)CC1 . -2.59% (inactive)

Reported inhibition of SARS-CoV-2 cytopathic effect for C[C@H]1CC[C@H](n2c3cnccc3c3cnc(Nc4ccc5c(n4)CCN(C(=O)CO)C5)nc32)CC1 : what is it? -0.44% (inactive)

Consider the compound CN[C@H]1CN(c2ccc3c(=O)c(C(=O)O)cn(-c4nccs4)c3n2)C[C@@H]1OC [voreloxin] and give its measured inhibition of SARS-CoV-2 cytopathic effect. -0.72% (inactive)

Please look up its inhibition of SARS-CoV-2 cytopathic effect: CCc1cnn2c(NCc3ccc[n+]([O-])c3)cc(N3CCCC[C@H]3CCO)nc12 [dinaciclib] -9.46% (inactive)

Requested read-out: inhibition of SARS-CoV-2 cytopathic effect. Entry: CN(C)c1ccc2nc3ccc(=[N+](C)C)cc-3sc2c1 [methylene-blue] 8.6% (inactive)

====

Kindly state SARS-CoV-2 infection rate for each of the entries shown.
# System: Vero E6 infected with SARS-CoV-2
# assay_procedure: SARS-CoV-2 infection rate relative to infected DMSO; higher = more infection, active = 60 or less
# particulars: 24 h
Expressed in %, but write only the number.

For the compound shown here, COc1ccc(C(CN(C)C)C2(O)CCCCC2)cc1 (stereo not drawn) [venlafaxine] (10 µM) , give the reported SARS-CoV-2 infection rate. 110

Can you look up the measured SARS-CoV-2 infection rate of CCCCOC(=O)c1cc2c(cn1)[nH]c1ccccc12 [beta-CCB] (10 µM) for me? 94

Give its SARS-CoV-2 infection rate value. Item: COc1cc(N)cn[n+]1-c1ccccc1 [amezinium] (10 µM) 100

# input compound: C=CC(=O)Nc1cccc(Oc2nc(Nc3ccc(N4CCN(C)CC4)cc3)ncc2Cl)c1 (10 µM) ; wanted: its SARS-CoV-2 infection rate 118

Reported SARS-CoV-2 infection rate for C=C[C@H]1CN2CC[C@H]1C[C@H]2[C@H](O)c1ccnc2ccccc12 [cinchonidine] (10 µM) : what is it? 112

Reported SARS-CoV-2 infection rate, compound CNCCn1c(=O)c2cc(OC)c(OC)cc2c2cnc3cc4c(cc3c21)OCO4 (10 µM) : ____ 118

Look up SARS-CoV-2 infection rate for this compound: COc1cc2nccc(Oc3ccc(NC(=O)C4(C(=O)Nc5ccc(F)cc5)CC4)cc3)c2cc1OC [cabozantinib] (0.833333 µM) 97.5

Consider the compound CC(=O)OCC(=O)[C@@]1(O)CC[C@H]2[C@@H]3CCC4=CC(=O)C=C[C@]4(C)[C@H]3[C@@H](O)C[C@@]21C [prednisolone-acetate] (10 µM) and give its measured SARS-CoV-2 infection rate. 108

====

Consider the following compounds; for each one, report its inhibition of SARS-CoV-2 cytopathic effect.
# Tested on: Vero E6 infected with SARS-CoV-2
# assay_procedure: inhibition of SARS-CoV-2 cytopathic effect; higher = more antiviral protection, active = above 15
# particulars: 100 nM; 48 h
State the answer as a number, implicitly in %.

inhibition of SARS-CoV-2 cytopathic effect lookup needed for CO/N=C(\C(=O)N[C@@H]1C(=O)N2C(C(=O)OCOC(=O)C(C)(C)C)=C(C)CS[C@H]12)c1csc(N)n1 , thanks. -2.82

Quick one: inhibition of SARS-CoV-2 cytopathic effect of CCn1ccnc1CC1COc2ccccc2O1 (configuration not stated) ? -0.32

For Nc1ncnc2c1c(COc1cccc(Cl)c1)nn2C1CCOCC1 , what is its reported inhibition of SARS-CoV-2 cytopathic effect? -0.3

Need inhibition of SARS-CoV-2 cytopathic effect, item CC(C)[C@H](O)C(=O)N[C@@H](C)C(=O)N[C@@H]1C(=O)N(C)CCc2ccccc21 -1.88

Requested read-out: inhibition of SARS-CoV-2 cytopathic effect. Entry: CCC(NC(C)C)C(O)c1ccc(O)c(O)c1 (configuration not stated) -2.12

inhibition of SARS-CoV-2 cytopathic effect for O=C1NC(=S)NC(=O)C1C(=O)Nc1ccccc1 ? -0.15

Given the entry CCCCOc1ccc(C(=O)Nc2ccc(F)cc2F)cc1 , report its measured inhibition of SARS-CoV-2 cytopathic effect. -3.66

Consider the compound shown here: Cc1nc(Nc2ccc(F)cc2)nc(N2CCc3ccccc3C2C)c1C (configuration not stated) What is its recorded inhibition of SARS-CoV-2 cytopathic effect? 2.31

What does the data say about its inhibition of SARS-CoV-2 cytopathic effect? Entry: CC(C)(N)c1nc(-c2ccc(OC(F)(F)F)cc2)c[nH]1 2.45

Look up inhibition of SARS-CoV-2 cytopathic effect for this compound: NS(=O)(=O)OC[C@@H]1C[C@@H](n2ccc3c(N[C@H]4CCc5ccccc54)ncnc32)C[C@@H]1O 2.73

Tell me the measured inhibition of SARS-CoV-2 cytopathic effect of O=C(O)Cn1c2c(c3cc(F)ccc31)CN(C(=O)c1cccc3ccccc13)CC2 , please. -0.37

Reported inhibition of SARS-CoV-2 cytopathic effect, compound COc1ccccc1Oc1c(NS(=O)(=O)c2ccc(C(C)(C)C)cc2)nc(-c2ncccn2)nc1OCCO : ____ 1.79

GET /values?readout=inhibition of SARS-CoV-2 cytopathic effect&item= O=C(O)/C=C\c1c[nH]cn1 [cis-Urocanic acid] -1.15

# query: inhibition of SARS-CoV-2 cytopathic effect of entry CC(C)(O)C(=O)Nc1ccc([N+](=O)[O-])c(C(F)(F)F)c1 [2-hydroxyflutamide] -0.65

Can you share its inhibition of SARS-CoV-2 cytopathic effect? I mean this compound: C[n+]1ccc(C(=O)NCc2ccccc2)cc1 [enisamium-iodide] -0.6

Tell me the measured inhibition of SARS-CoV-2 cytopathic effect of CNc1ncc2cc(-c3cc(NC(=O)NCCC(C)(C)C)c(F)cc3C)c(C)nc2n1 , please. 5.54

What does the data say about its inhibition of SARS-CoV-2 cytopathic effect? Entry: COc1cc2nccc(Oc3ccc(NC(=O)C4(C(=O)Nc5ccc(F)cc5)CC4)cc3)c2cc1OC [cabozantinib] -0.89

Name the reported inhibition of SARS-CoV-2 cytopathic effect value associated with the compound NC(=O)C[C@H](N)C(=O)O -3.65

Which measured inhibition of SARS-CoV-2 cytopathic effect value corresponds to CS(=O)(=O)c1ccc([C@@H](O)[C@@H](CO)NC(=O)C(Cl)Cl)cc1 ? -3.22

Item under review: O=C1NS(=O)(=O)c2ccccc21 . Reported inhibition of SARS-CoV-2 cytopathic effect? 0.17

For the compound Sc1ncnc2nc[nH]c12 , what inhibition of SARS-CoV-2 cytopathic effect is on record? 2.14

Given Clc1ccccc1CNC[C@H]1CC[C@H](CNCc2ccccc2Cl)CC1 , state its recorded inhibition of SARS-CoV-2 cytopathic effect. -1.13

Look up inhibition of SARS-CoV-2 cytopathic effect: O=C1CCc2cc(OCCCCc3nnnn3C3CCCCC3)ccc2N1 1.96

What measured inhibition of SARS-CoV-2 cytopathic effect goes with CCOc1cc(N)c(Cl)cc1C(=O)NCC1CN(Cc2ccc(F)cc2)CCO1 (configuration not stated) [mosapride] ? 3.38

If you can, please state the reported inhibition of SARS-CoV-2 cytopathic effect value of C[n+]1cc2c3c(ccc2c2ccc4cc5c(cc4c21)OCO5)OCO3 [sanguinarium-chloride] . -1.52

Recorded inhibition of SARS-CoV-2 cytopathic effect of O=C(O)CSCC(=O)NC1CCSC1=O (configuration not stated) , please. 1.67

Endpoint output: inhibition of SARS-CoV-2 cytopathic effect of CC(C)N1CCN(c2ccc(OCC3COC(Cn4cncn4)(c4ccc(Cl)cc4Cl)O3)cc2)CC1 (configuration not stated) . Value? 4.2

For the compound N#Cc1ccc(NCCNCC(=O)N2CCC[C@H]2C#N)nc1 , what inhibition of SARS-CoV-2 cytopathic effect is on record? -0.06

State the recorded inhibition of SARS-CoV-2 cytopathic effect for this entry: COc1ccc2c(c1)[C@]13CCCC[C@@H]1[C@H](C2)N(C)CC3 0.6

State the recorded inhibition of SARS-CoV-2 cytopathic effect for this entry: CCCCn1c(-c2ccccc2)nc(-c2ccccc2)c1CN(Cc1ccc2c(c1)OCO2)Cc1ccc2c(c1)OCO2 -0.2

Form field: reported inhibition of SARS-CoV-2 cytopathic effect of O=C(O)c1ccccc1NCCc1ccccc1 1.18

Fill blank: measured inhibition of SARS-CoV-2 cytopathic effect of the compound CCCn1c(=O)c2[nH]c(-c3cnn(Cc4cccc(C(F)(F)F)c4)c3)nc2n(CC)c1=O is ____. 2.16

Name the recorded inhibition of SARS-CoV-2 cytopathic effect for Cc1cc(C(=O)Nc2cc(Oc3ccc4nc(NC(=O)C5CC5)cn4n3)ccc2C)n(C)n1 . -4.84

Recorded inhibition of SARS-CoV-2 cytopathic effect of C[C@H]1[C@@H](O)O[C@@H]2O[C@@]3(C)CC[C@H]4[C@H](C)CC[C@@H]1[C@@]24OO3 , please. 1.39

Entry CC(=O)OCC(=O)[C@@]1(O)CC[C@H]2[C@@H]3CCC4=CC(=O)CC[C@]4(C)[C@H]3[C@@H](O)C[C@@]21C [hydrocortisone-acetate] : reported inhibition of SARS-CoV-2 cytopathic effect = ? 0.23

# lookup: inhibition of SARS-CoV-2 cytopathic effect of CC(C)c1ccc2c(c1)CC[C@H]1[C@](C)(CN)CCC[C@]21C 0.03

Please give the measured inhibition of SARS-CoV-2 cytopathic effect for this compound: COC(=O)[C@H](NC(=O)c1cc(-c2ccccc2)nc2ccccc12)c1ccccc1 0.38
